Numbers sourced from patent US11352396B2.

System: MSSP (Methicillin-Susceptible Staphylococcus pseudintermedius)
Assay: MIC against selected strains of MSSP
Format: cell-based
Set-up: unit not given beside the values
Details: strain 72036, Table 5
measurementLabel: Effect on MSSP 72036
Provide a numeric answer; units are not to be included.

{"substance": "115 (GWCFRVCYRGICYRRCND; Artificial Antimicrobial peptide) [compound 115]", "measurementLabel": "Effect on MSSP 72036", "recordedValue": 1.6}

Prompt: What Effect on MSSP 72036 value was documented for this substance, 100 (KWCFWVCYRGICYRRCRD; Artificial Antimicrobial peptide) [compound 100] ?
Completion: 1.6

Prompt: What Effect on MSSP 72036 value was documented for this substance, 110 (KWCFRVCYRGYCYRRCRD; Artificial Antimicrobial peptide) [compound 110] ?
Completion: 3.1

Prompt: What Effect on MSSP 72036 value was documented for this substance, 97 (KRCFRVCYRGICYRRCRD; Artificial Antimicrobial peptide) [compound 97] ?
Completion: 3.1

Prompt: What Effect on MSSP 72036 value was documented for this substance, 30 (PWCFRVCYRGICYRRCR; Artificial Antimicrobial peptide) [compound 30] ?
Completion: 0.8

Prompt: What Effect on MSSP 72036 value was documented for this substance, 108 (KWCFRVCYGGICYRRCRD; Artificial Antimicrobial peptide) [compound 108] ?
Completion: 3.1

Prompt: What Effect on MSSP 72036 value was documented for this substance, 114 (KWCFRVCYRGICYRRCRR; Artificial Antimicrobial peptide) [compound 114] ?
Completion: 3.1

Prompt: What Effect on MSSP 72036 value was documented for this substance, 116 (KWCFYVCYRGICYRRCND; Artificial Antimicrobial peptide) [compound 116] ?
Completion: 1.6

Prompt: What Effect on MSSP 72036 value was documented for this substance, 29 (PKWCFRVCYRGICYRRCRD; Artificial Antimicrobial peptide) [compound 29] ?
Completion: 1.6
